Test: In vivo pharmacokinetic study in dogs, oral dose of ARI-158
Design: species or system male beagle dogs
Conditions: male, beagle, dog, plasma, po, 10 mg/kg, dogs; 10 mg/kg oral dose of ARI-158; Mean
Method: This example describes pharmacokinetic (PK) studies of ARI-158 and ARI-160 in dogs and rats, respectively. In the present studies, the test compounds were given to groups of male beagle dogs and rats (N=3 in each group) intravenously (IV) at 2 mg/kg or orally (PO) at 10 mg/kg. IV doses were formulated in DMSO, while PO doses were formulated in a 50/50 mixture of PEG400 and Tween 80. […] Plasma concentrations of the indolo-phosphoramidate compounds were determined by HPLC.
reported.metric: Tmax (min)
Field: numeric (min). Do not append units.

**Query** Please report the recorded Tmax for CCC(=O)c1csc(C(=O)c2cn(P(=O)([O-])[O-])c3cc(F)ccc23)n1.[Na+].[Na+] [ARI-158] .
**Result** 40
